Value source: patent US20260042764A1

tgt: Avi-KRAS G12V (2-169) GTP/RAF1 RBD-3xFLAG (51-131) (Homo sapiens, UniProt P01116, G12V)
Construct: Avi-KRAS G12V (2-169)
Sequence (P01116 2-169 isoform P01116-2 G12V): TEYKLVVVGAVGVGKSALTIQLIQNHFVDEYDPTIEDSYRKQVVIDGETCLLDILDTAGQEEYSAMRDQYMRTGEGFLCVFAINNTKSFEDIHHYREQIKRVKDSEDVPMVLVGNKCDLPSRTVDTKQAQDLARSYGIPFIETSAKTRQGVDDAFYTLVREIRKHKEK
method: Raf1-KRAS G12V-GTP disruption HTRF assay (Biological Example 3)
Assay type: binding
conditionInfo: KRAS G12V, GTP-loaded
pIC50: −log10 of the molar value.
reportedEndpoint: pIC50

Here is how some compounds turned out for pIC50.
compound | pIC50
CCC(=O)N1CC[C@@H](N(CC)c2nc(OC[C@@]34CCCN3C[C@H](F)C4)nc3c(F)c(-c4ccc(F)c5sc(N)c(C#N)c45)c(C(F)(F)F)cc23)C1 [Compound 327] | 6.00 to 7.00
CC(=O)N1C[C@H](N(C)c2nc(OC[C@@]34CCCN3C[C@H](F)C4)nc3c(F)c(-c4ccc(F)c5sc(N)c(C#N)c45)c(C(F)(F)F)cc23)C[C@@H]1C [Compound 298] | 6.00 to 7.00
CN(Cc1ccno1)c1nc(OC[C@@]23CCCN2C[C@H](F)C3)nc2c(F)c(-c3ccc(F)c4sc(N)c(C#N)c34)c(C(F)(F)F)cc12 (atropisomer, axis not shown) [Compound 917] | 6.00 to 7.00
CCN(c1nc(OC[C@@]23CCCN2C[C@H](F)C3)nc2c(F)c(-c3ccc(F)c4sc(N)c(C#N)c34)c(C(F)(F)F)cc12)[C@H]1C[C@@H](C)N(C(=O)C2CC2(F)F)C1 (some centres unmarked) [Compound 877] | 5.00 to 6.00

Okay, next one:
Determine from records and report pIC50 for CN(Cc1cnccn1)c1nc(OC[C@@]23CCCN2C[C@H](F)C3)nc2c(F)c(-c3ccc(F)c4sc(N)c(C#N)c34)c(C(F)(F)F)cc12 (atropisomer, axis not shown) [Compound 872]
6.00 to 7.00

* * *

Entries annotated with measured IC50
tgt: Avi-KRAS G12V (1-169) GppNHp/RAF1 RBD-3xFLAG (52-151) (Homo sapiens, UniProt P01116, G12V)
Construct: Avi-KRAS G12V (1-169)
Sequence (P01116 1-169 isoform P01116-2 G12V): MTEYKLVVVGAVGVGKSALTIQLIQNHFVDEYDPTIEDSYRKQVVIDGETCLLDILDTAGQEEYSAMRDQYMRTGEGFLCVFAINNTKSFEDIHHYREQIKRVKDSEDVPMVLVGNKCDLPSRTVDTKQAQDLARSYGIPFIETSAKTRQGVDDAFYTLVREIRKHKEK
method: Raf1-KRAS G12V-GppNHP disruption HTRF assay (Biological Example 1)
Format: binding
conditionInfo: KRAS G12V-GppNHp/RAF1 RBD HTRF

Worked cases, IC50 given:
compound | IC50
CCN(c1nc(OC[C@@]23CCCN2C[C@H](F)C3)nc2c(F)c(-c3ccc(F)c4sc(N)c(C#N)c34)c(C(F)(F)F)cc12)[C@@H]1CCN(C(=O)C2CC2)C1 | 100 to 1000 nM
CN(c1nc(OC[C@@]23CCCN2C[C@H](F)C3)nc2c(F)c(-c3ccc(F)c4sc(N)c(C#N)c34)c(C(F)(F)F)cc12)[C@H]1CC[C@@H](O)C1 | 100 to 1000 nM
CCN(c1nc(OC[C@@]23CCCN2C[C@H](F)C3)nc2c(F)c(-c3ccc(F)c4sc(N)c(C#N)c34)c(C(F)(F)F)cc12)[C@H]1CCN(C(=O)COC)C1 (atropisomer, axis not shown) | < 100 nM
N#Cc1c(N)sc2c(F)ccc(-c3c(C(F)(F)F)cc4c(N5CCn6nc(C(=O)N7CC[C@H](O)C7)cc6C5)nc(OC[C@@]56CCCN5C[C@H](F)C6)nc4c3F)c12 | 100 to 1000 nM
CC(=O)N1CCC(N(C)c2nc(OC[C@@]34CCCN3C[C@H](F)C4)nc3c(F)c(-c4ccc(F)c5sc(N)c(C#N)c45)c(C(F)(F)F)cc23)CC1 | 100 to 1000 nM
N#Cc1c(N)sc2c(F)ccc(-c3c(C(F)(F)F)cc4c(N5C[C@H]6C[C@@H]5CO6)nc(OC[C@@]56CCCN5C[C@H](F)C6)nc4c3F)c12 (single isomer, unassigned) [Compound 288] | > 10000 nM

Tell me IC50 of `CC(=O)N1CCC[C@@H](N(C)c2nc(OC[C@@]34CCCN3C[C@H](F)C4)nc3c(F)c(-c4ccc(F)c5sc(N)c(C#N)c45)c(C(F)(F)F)cc23)C1` when tested on Avi-KRAS G12V (1-169) GppNHp/RAF1 RBD-3xFLAG (52-151) (Homo sapiens, UniProt P01116, G12V).
100 to 1000 nM

Please respond with reported IC50 (system Avi-KRAS G12V (1-169) GppNHp/RAF1 RBD-3xFLAG (52-151) (Homo sapiens, UniProt P01116, G12V)) for `CCN(c1nc(OC[C@@]23CCCN2C[C@H](F)C3)nc2c(F)c(-c3ccc(F)c4sc(N)c(C#N)c34)c(C(F)(F)F)cc12)[C@@H]1CC(=O)N(C2CC2)C1` .
< 100 nM

Lab note: Avi-KRAS G12V (1-169) GppNHp/RAF1 RBD-3xFLAG (52-151) (Homo sapiens, UniProt P01116, G12V) assay, enter IC50 for `CCN(c1nc(OC[C@@]23CCCN2C[C@H](F)C3)nc2c(F)c(-c3ccc(F)c4sc(N)c(C#N)c34)c(C(F)(F)F)cc12)[C@@H]1CCN(C(=O)C2CC2)[C@H]1C` here
1000 to 10000 nM

# lookup: Avi-KRAS G12V (1-169) GppNHp/RAF1 RBD-3xFLAG (52-151) (Homo sapiens, UniProt P01116, G12V) IC50, key = `CN(c1nc(OC[C@@]23CCCN2C[C@H](F)C3)nc2c(F)c(-c3ccc(F)c4sc(N)c(C#N)c34)c(C(F)(F)F)cc12)[C@@H]1CC(=O)N2CCC[C@H]12`
100 to 1000 nM

* * *

Listing: pIC50 of selected compounds
Test system: HPAC cells (KRAS G12D)
method: Cell-based pERK HTRF assay in HPAC cells (Biological Example 5)
conditionInfo: Homo sapiens, HPAC
pIC50: −log10 of the molar value.

Worked examples, 3 compounds total:
compound | pIC50
CCN(c1nc(OC[C@@]23CCCN2C[C@H](F)C3)nc2c(F)c(-c3ccc(F)c4sc(N)c(C#N)c34)c(Cl)cc12)[C@@H]1CCN(C(=O)C2CC2)[C@@H]1C [Compound 337] | ≥ 7.00
CCN(c1nc(OC[C@@]23CCCN2C[C@H](F)C3)nc2c(F)c(-c3ccc(F)c4sc(N)c(C#N)c34)c(C(F)(F)F)cc12)[C@H]1C[C@H]2CN(C)C(=O)N2C1 (atropisomer, axis not shown; (aS)) [Compound 543] | ≥ 7.00
CCN(c1nc(OC[C@@]23CCCN2C[C@H](F)C3)nc2c(F)c(-c3ccc(F)c4sc(N)c(C#N)c34)c(C(F)(F)F)cc12)[C@H]1CCN(C(=O)OC)C1 (atropisomer, axis not shown) [Compound 541] | ≥ 7.00

Next:
Determine its reported pIC50: CCN(c1nc(OC[C@@]23CCCN2C[C@H](F)C3)nc2c(F)c(-c3ccc(F)c4sc(N)c(C#N)c34)c(C(F)(F)F)cc12)[C@H]1C[C@H](C)N(C(=O)N2CC(OC)C2)C1 (atropisomer, axis not shown) [Compound 764]
6.00 to 7.00

* * *

tgt: Avi-KRAS WT (2-169) GTP/RAF1 RBD-3xFLAG (51-131) (Homo sapiens)
Construct: Avi-KRAS WT (2-169)
Sequence (P01116 2-169 isoform P01116-2): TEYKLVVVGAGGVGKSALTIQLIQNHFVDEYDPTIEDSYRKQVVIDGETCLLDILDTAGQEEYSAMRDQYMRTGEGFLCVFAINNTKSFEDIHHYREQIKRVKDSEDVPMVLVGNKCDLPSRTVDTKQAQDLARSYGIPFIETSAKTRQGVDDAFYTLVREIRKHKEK
method: Raf1-KRAS WT-GTP disruption HTRF assay (Biological Example 3)
Type: binding
conditionInfo: KRAS WT, GTP-loaded
Each item that follows carries a reported IC50.

Would you please look over these solved cases?
compound | reportedEndpoint | result
CCN(c1nc(OCC23CCCN2CC(F)C3)nc2c(F)c(-c3ccc(F)c4sc(N)c(C#N)c34)c(C(F)(F)F)cc12)C1CC(C)N(C(=O)C2CC2(F)F)C1 (centres unmarked) | IC50 | 100 to 1000 nM
CCN(c1nc(OC[C@@]23CCCN2C[C@H](F)C3)nc2c(F)c(-c3ccc(F)c4sc(N)c(C#N)c34)c(C(F)(F)F)cc12)[C@@H]1CCN(C(=O)C2CC2)[C@@H]1C (atropisomer, axis not shown) | IC50 | ≤ 100 nM
CCN(c1nc(OC[C@@]23CCCN2C[C@H](F)C3)nc2c(F)c(-c3ccc(F)c4sc(N)c(C#N)c34)c(C(F)(F)F)cc12)[C@H]1CCN(C(=O)O[C@@H]2CO[C@H]3OCC[C@H]32)C1 (atropisomer, axis not shown) | IC50 | 100 to 1000 nM
CCN(c1nc(OC[C@@]23CCCN2C[C@H](F)C3)nc2c(F)c(-c3ccc(F)c4sc(N)c(C#N)c34)c(C(F)(F)F)cc12)[C@H]1C[C@H](COC)N(C(=O)C2CC2(F)F)C1 (some centres unmarked) | IC50 | 100 to 1000 nM

Now look at this one.
Find the measured IC50 of N#Cc1c(N)sc2c(F)ccc(-c3c(C(F)(F)F)cc4c(N5C[C@H]6C[C@@H]5CO6)nc(OC[C@@]56CCCN5C[C@H](F)C6)nc4c3F)c12 (single isomer, unassigned) [Compound 287] and report it.
100 to 1000 nM
